FYI, the data here is from PubChem BioAssay (NCI).

Reported GI50 is given for each of the following molecules.
Test system: NCI-H522 lung
assay: NCI tumour cell line growth inhibition, 48 h

For orientation, consider the following solved cases.
# sample smiles, property, endpoint result
records = [
    ("NC(=O)[C@H]1CCN(c2ncnc(N)c2F)C[C@@H]1N1CCC[C@@H](Nc2cc(Cl)cc(C(F)(F)F)c2)C1=O", "GI50", "7110 nM"),
    ("Fc1ccc2[nH]cc(Cc3c[nH]c4ccc(F)cc34)c2c1", "GI50", "14300 nM"),
    ("O=c1cc(CNc2cc(F)cc(F)c2)c2ccc(I)cc2[nH]1", "GI50", "305 nM"),
]

Inquiry: What measured GI50 goes with `CCN(CC)c1ccc(/C=C/c2cc(C)c3ccccc3n2)cc1` ?
Reply text: 1310 nM

Inquiry: Next molecule up: `CN(C)CCCNC(=O)c1cc(NC(=O)CCNS(=O)(=O)c2ccc3c(c2)C(=O)c2ccccc2C3=O)cn1C`
Reply text: > 100000 nM

Inquiry: Also `CCc1ccc(NC(=O)Nc2c[nH]c3ccccc23)cc1` ?
Reply text: 1180 nM
